Test system: HeLa Kyoto;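 note: HeLa Kyoto cells synchronized by double thymidine or nocodazole block, proteins quantified by TMT10plex mass spectrometry, three independent biological replicates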
method summary: melting temperature (median over replicates), in situ; higher = more thermally stable
experimental setup: cell cycle stage: mitosis
reported property: melting temperature (°C)
Answers are plain numbers, in °C.

Here are 4 substances. What values of melting temperature were reported for them?
1. ARFGEF2
2. MAKTYDYLFKLLLIGDSGVGKTCVLFRFSEDAFNSTFISTIGIDFKIRTIELDGKRIKLQIWDTAGQERFRTITTAYYRGAMGIMLVYDITNEKSFDNIRNWIRNIEEHASADVEKMILGNKCDVNDKRQVSKERGEKLALDYGIKFMETSAKANINVENAFFTLARDIKAKMDKKLEGNSPQGSNQGVKITPDQQKRSSFFRCVLL [RAB8A]
3. MEGNRDEAEKCVEIAREALNAGNREKAQRFLQKAEKLYPLPSARALLEIIMKNGSTAGNSPHCRKPSGSGDQSKPNCTKDSTSGSGEGGKGYTKDQVDGVLSINKCKNYYEVLGVTKDAGDEDLKKAYRKLALKFHPDKNHAPGATDAFKKIGNAYAVLSNPEKRKQYDLTGNEEQACNHQNNGRFNFHRGCEADITPEDLFNIFFGGGFPSGSVHSFSNGRAGYSQQHQHRHSGHEREEERGDGGFSVFIQLMPIIVLILVSLLSQLMVSNPPYSLYPRSGTGQTIKMQTENLGVVYYVNKDFKNEYKGMLLQKVEKSVEEDYVTNIRNNCWKERQQKTDMQYAAKVYRDDRLRRKADALSMDNCKELERLTSLYKGG [DNAJB14]
4. MGVQPPNFSWVLPGRLAGLALPRLPAHYQFLLDLGVRHLVSLTERGPPHSDSCPGLTLHRLRIPDFCPPAPDQIDRFVQIVDEANARGEAVGVHCALGFGRTGTMLACYLVKERGLAAGDAIAEIRRLRPGSIETYEQEKAVFQFYQRTK [DUSP23]

Result block:
50.5
55.4
51.9
52.9
